Give measured pIC50 for each item. Keep answers brief.
# Target Under Test: beta-catenin/TCF4 engagement (Homo sapiens, UniProt P35222)
# Construct: expressed in transfected cells; host or cells: HEK293
# Sequence (P35222 1-781): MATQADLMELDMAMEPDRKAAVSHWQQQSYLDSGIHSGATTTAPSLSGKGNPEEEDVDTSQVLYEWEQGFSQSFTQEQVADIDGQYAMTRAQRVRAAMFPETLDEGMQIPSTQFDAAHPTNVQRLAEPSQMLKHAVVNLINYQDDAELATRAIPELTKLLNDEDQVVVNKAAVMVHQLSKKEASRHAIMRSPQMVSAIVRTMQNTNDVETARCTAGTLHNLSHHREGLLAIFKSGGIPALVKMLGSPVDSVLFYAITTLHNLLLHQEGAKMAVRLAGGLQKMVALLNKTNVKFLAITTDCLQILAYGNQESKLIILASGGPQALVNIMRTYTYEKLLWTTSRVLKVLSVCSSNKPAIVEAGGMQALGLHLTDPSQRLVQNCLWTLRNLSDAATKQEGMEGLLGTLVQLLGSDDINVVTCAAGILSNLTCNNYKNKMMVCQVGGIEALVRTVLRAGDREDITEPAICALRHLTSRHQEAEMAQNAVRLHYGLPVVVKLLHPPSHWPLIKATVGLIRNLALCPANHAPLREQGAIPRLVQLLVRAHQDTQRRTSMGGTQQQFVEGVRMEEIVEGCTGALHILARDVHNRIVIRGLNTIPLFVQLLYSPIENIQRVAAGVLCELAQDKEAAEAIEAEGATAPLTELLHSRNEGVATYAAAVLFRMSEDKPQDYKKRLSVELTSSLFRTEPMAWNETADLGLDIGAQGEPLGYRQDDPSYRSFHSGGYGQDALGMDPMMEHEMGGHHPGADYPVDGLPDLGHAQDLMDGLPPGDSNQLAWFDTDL
# Experiment Description: Nano-BRET target engagement assay (B-cat-Halo & TCF4-Luc in HEK293 cells)
# Assay type: cell-based
# Conditions Used: absolute IC50; read-out: NanoBRET Abs IC50
Numbers only, as −log10 of the molar value.

CC(=O)N1CCC[C@]12CC=CCCCC1(CCCC=CCCCOC(=O)N3CC[C@@](C(=O)N[C@@H](Cc4ccccc4Cl)C(=O)N[C@@H](Cc4csc5ccccc45)C(=O)N[C@@H](CCCCNC(C)C)C(N)=O)(C3)NC(=O)[C@H](CC(N)=O)NC(=O)[C@H](Cc3ccccc3)NC(=O)[C@H](C)NC(=O)[C@H](C)NC(=O)[C@H](CC(=O)O)NC(=O)[C@H](CC(=O)O)NC1=O)NC(=O)[C@H](CC(C)(C)C)NC(=O)[C@H](CC(=O)O)NC2=O (stereo partly drawn) :: 5.12

# evaluate next
Reported pIC50, compound CC(=O)N1CCC[C@]12CC=CCCCC1(CCCC=CCCCOC(=O)N3CC[C@@](C(=O)N[C@@H](Cc4ccccc4Cl)C(=O)N[C@@H](Cc4csc5ccccc45)C(=O)N[C@@H](CCCCNC(C)C)C(N)=O)(C3)NC(=O)[C@H]([C@@H](C)O)NC(=O)[C@H](Cc3ccccc3)NC(=O)[C@H](C)NC(=O)[C@H](C)NC(=O)[C@H](CN(CC(=O)O)CC(F)(F)F)NC(=O)[C@H](CC(=O)O)NC1=O)NC(=O)[C@H](CC(C)(C)C)NC(=O)[C@H](CC(=O)O)NC2=O (stereo partly drawn) : ____
5.10
